- protocolNotes: soluble on expression in E. coli; label from the status in PepcDB or PDB records
readoutName: soluble on expression in E. coli

{"sequenceData": "MGSDKIHHHHHHMTDEHSVFEYKIGLLAPSRVGKSTLIAGLLTEGQQQLAQDSSVHLLTADRPTKNRLAATYNLVSGALKARMFEPGLVPSTSDPSWFRLLLEARGQDLQIRFDILDYPGAWLEGAGEGTEDEQKWNECEAFLADSSVLILPIDSVLLMDSGDDHAHLLASHLSVFQINQAVLRWAKNRRELSGEPAMIVFCPVKCETYLSDSGSLQDHAGTLRGKVVDQFSDVLKTVRDAAPHAAVRYLPIDTFGCVELVSARWIHAQGSPGGEMLVPKYRVRPPGQIVRKGLDDLLTLLCRQLVDTARAQSERTTAAKQTAALNSRNHAELREGFFRDLWLNFNGERNRRRHTAATDERLFAMSQRTTQSLFDVLTALAGRESGPRLHHLS", "soluble on expression in E. coli": "not soluble"}
{"sequenceData": "GMTDGEAVSAAAGPGAEGPPGPVGHWAPGSHILWRYRENGGPHVHIARPVTVVRDDADLLAVWLAPGTECVKPVLADGTPVHLEPLATRYTKPRTVQRDQWFGTGVLKLARPGEAWSVWLFWDPGWRFKNWYVNLERPLTRWEGGVDSEDHFLDISVHPDRTWHWRDEDEFAQALRDGLMDPASAGRVRRAGRSAVAEIRAWGSPFADGWEHWRPDPAWPVPSLPGDWDRTPAHVSS", "soluble on expression in E. coli": "soluble"}
{"sequenceData": "METYAVFGNPIAHSKSPFIHQQFAQQLNIEHPYGRVLAPINDFINTLNAFFSAGGKGANVTVPFKEEAFARADELTERAALAGAVNTLMRLEDGRLLGDNTDGVGLLSDLERLSFIRPGLRILLIGAGGASRGVLLPLLSLDCAVTITNRTVSRAEELAKLFAHTGSIQALSMDELEGHEFDLIINATSSGISGDIPAIPSSLIHPGIYCYDMFYQKGKTPFLAWCEQRGSKRNADGLGMLVAQAAHAFLLWHGVLPDVEPVIKQLQEELSALEHHHHHH", "soluble on expression in E. coli": "soluble"}
{"sequenceData": "MGHHHHHHSHMLDDQEAKREAETFKEQGNAYYAKKDYNEAYNYYTKAIDMCPKNASYYGNRAATLMMLGRFREALGDAQQSVRLDDSFVRGHLREGKCHLSLGNAMAACRSFQRALELDHKNAQAQQEFKNANAVMEYEKIAETDFEKRDFRKV", "soluble on expression in E. coli": "not soluble"}
{"sequenceData": "MGSDKIHHHHHHMSQRIGVIDMGTNTFHLLITDIVNDRPHTLVNEKSAVGLGKGGITKGFITEEAMDRALDTLKKFRVILDEHAVVHVIATGTSAVRSGSNKQVLIDRIKKEVNIDVEVIDGAREAELIFRGVQQAVPMEDHISLAMDIGGGSVEFIIGNKNEILWKQSFEIGGQRLIDRFHVHDPMREDDRVMMHNYFDEVLVPLEKAINTWRPTQLIGCSGTFDTLAEMNIQHHREKIALEKQTSYLLSLPDFNRLRKQLVASTRRERLAIAGMIELRADMVVVAICLIEHVLKLVSTNAITVSTYSLKEGVLYTMLDGVKVGS", "soluble on expression in E. coli": "not soluble"}

Next sequence, soluble on expression in E. coli to be filled in.
Quick one: give measured soluble on expression in E. coli for `MDQEIKSLELNITQLSAITGAHRQTIASRLKGVKTSGGNGSNLKIYRLVDILTAMMTMPAVTGENDPNKMKPSDRRAWFQSEMTRIELEKEMRTLIPASEVLSVYAVMAKTVVKTLEILPDLLERDAALPPDALEMTQKIIDQLREDLASMTYQACADAINGDDDDNGDEGQEEEQE` not soluble

====

- protocolNotes: soluble on expression in E. coli; label from the status in PepcDB or PDB records
readoutName: soluble on expression in E. coli

Recorded results for 5 sequences are shown here.
{"sequenceData": "MPDTSFSNPGLFTPLQLGSLSLPNRVIMAPLTRSRTPDSVPGRLQQIYYGQRASAGLIISEATNISPTARGYVYTPGIWTDAQEAGWKGVVEAVHAKGGRIALQLWHVGRVSHELVQPDGQQPVAPSALKAEGAECFVEFEDGTAGLHPTSTPRALETDEIPGIVEDYRQAAQRAKRAGFDMVEVHAANACLPNQFLATGTNRRTDQYGGSIENRARFPLEVVDAVAEVFGPERVGIRLTPFLELFGLTDDEPEAMAFYLAGELDRRGLAYLHFNEPDWIGGDITYPEGFREQMRQRFKGGLIYCGNYDAGRAQARLDDNTADAVAFGRPFIANPDLPERFRLGAALNEPDPSTFYGGAEVGYTDYPFLDNGHDRLG", "soluble on expression in E. coli": "soluble"}
{"sequenceData": "MGSDKIHHHHHHMKIYIMKQQMRQAKRVNYLDEHLNCLFYNGNPEIGFRHLTLQKGKTWCELSAKNNYFFFLLEGALIVDFNECVGYEVGKGEMIYLPRSADFKIFAKESADLIILSYGIPVQLCDKLSLSQLGAFITDFKYEFKSLDIRVPLDTFLKLLVKYLDSGMSCQHMHELKQKELFLILRAYYTKEEKVNFFYHSIAASLTFKDKVMGVYLEARTVQELADKCGYGLKTFQRLFYSCFSEVPSKWLMKQKAQHVKARLLDRDIPIKVILDEFGFSTYANFCNYCKRYVGDTPRNIRESVTLGFRK", "soluble on expression in E. coli": "not soluble"}
{"sequenceData": "TIKNFTFFSPNSTEFPVGSNNDGKLYMMLTGMDYRTIRRKDWSSPLNTALNVQYTNTSIIAGGRYFELLNETVALKGDSVNYIHANIDLTQTANPVSLSAETANNSNGVDINNGSGVLKVCFDIVTTSGTGVTSTKPIVQTSTLDSISVNDMTVSGSIDVPVQTLTVEAGNGLQLQLTKKNNDLVIVRFFGSVSNIQKGWNMSGTWVDRPFRPAAVQSLVGHFAGRDTSFHIDINPNGSITWWGANIDKTPIATRGNGSYFIKSAW", "soluble on expression in E. coli": "soluble"}
{"sequenceData": "MKFAFIAKHRSIWPVAWLCEALGVSRSGFHAWFNRSPSEHARHDEVLLERIKQSFQSSDRTYGARRVWHDVLEEGLSCGLHRIERLMRLNALRARPRRRGFPKDAGDRPVVMPNVLDRQFVADRPNQKWVADFTYIWTAEGWLYVAAVIDLFSRRVVGWSMNANMTAQLVTDALIMAIWRRGKPDALLHHSDQGSQYTSEQFQRLMGDHGITCSMSRSGNVWDNAAMESFFSSLKTERTARKVYRTRNDARADVFDYIERFYNPKRRHSTLGYLSPDDFETKVGLA", "soluble on expression in E. coli": "soluble"}
{"sequenceData": "MPSIYITGVDPTIVKIHEIQGTGTASPLVNNVVTIEAIVVGDFQDGDGDISRNLRGFYVQEEDADVDGNVATSEGIFIFENGNFITDVNVGDKVQITGTVDEFFGETQIDTITNITVISSGNTLPTAANITLPTAGTTESQGGTPQPDLEAFEGMLVKFTDTLTITEMFNLDRFNEIKLSQGGRPQQFTQFNDANVAGYGAYREEIGARTITYDDGLSVQNAEISNLDGFGSSFSTASDIRMGDTINNLTGVLSYQWAGNASSGATWRVRSAVDGTNQFTKVNDRPVTPENVGGSLKVTGFNVLNYFKTIDLEHHHHHH", "soluble on expression in E. coli": "not soluble"}

I'm hoping you can list soluble on expression in E. coli for every sequence here, please.
1. MISTANITQQFGAKPLFENISVKFGEGNRYGLIGANGCGKSTFMKILSGELEPTGGNVSYDPNERVAKLNQDQFAYEEFTVIDTVIMGHKELWEVKQERDRIYSLPEMSEEDGMKVADLEVQFAEMDGYMAEAKAGELLLAVGIPMEQHFGLMSEVAPGWKLRVLLAQILFADPDIMLLDEPTNNLDMDTIRWLEDTLNARNCTMIIISHDRHFLNSVCTHMADLDYGELRVYPGNYDEYMTAASQARERLLSDNAKKKAQIAELQTFVARFSANASKAKQATSRAKQIDKIKLDEVKASSRQNPFIRFEQSKELFRNA
2. MQGQHPPAELPSLRRQKILLLLERDGKVMAAELSRHFAVSEDTIRRDLAELDAGGLVQRVHGGALPRPKDSGKDYFTRVGETNEAKLRLAQYAVQWVQDGQTVLFDSGSTTLHIAQSLPAGISLTAVTASPMIAVALAEYPKVRVILAGGQLNPATLSASGHEALRMIQGIKADLMFTGVCAIHPEIGISSLHFDEVPIKQAMFDSASEVIAVTTADKLGAMEPFVVVPCNRLHRLVTEQEAPGVDIEGYRQLGIEVLQVLEHHHHHH
3. MTAISCSPRPRYASRMPVLSKTVEVTADAASIMAIVADIERYPEWNEGVKGAWVLARYDDGRPSQVRLDTAVQGIEGTYIHAVYYPGENQIQTVMQQGELFAKQEQLFSVVATGAASLLTVDMDVQVTMPVPEPMVKMLLNNVLEHLAENLKQRAEQLAAS
4. GPGSMLRKVTSPYKVSIRRTAASVTAADSKKAILRLIRFDPETNKQRVESYEYDKHHDYMVLDLITAVKAHQDPTLAFRASCCEGVCGSCAMNINGVNSLACITFSQQVTTVGPLPNFPVIKDFVVDLRHFFRQYAYIRPFVRNVNLDRSRLDNIVERYKTITKVIHGVPSDDEAQLAQLESKSGAQTDVMALLQLLDAVCESGNVTHLIRTLEALQERGMQLDQGKVKALIEETLQNYKKRKLGA
5. MAGDPMMKKDKDTNDQKSESHMKHNDESKVPEDMTSTNEGEFKVGDKVTITAGHMPGMKGAEATVKGAYKTYAYVVSYKPTNGNEKVNNHKWVVNEEIKDAPKDGFSKDDTVKLEANHMSGMKGATANIDNVKKTTVYVVDYKSKDNGKIIKNHKWMTGNELKARLEHHHHHH
6. ELYVVASPKSPIMEINKEQLSALYLGRNRVVGNTYINQVLDRSGTVRQRFFLQVTNMQESQINAYWAKLKFSGRLRAPESVVSEQELIAKLEENPFSIGYTDQVPSDALKVLLVL
7. PKTVQDLTSVVQTLLQQMQDKFQTISDQIIGRIDDMSSRIDDLEKNIA

["not soluble", "not soluble", "soluble", "not soluble", "soluble", "not soluble", "soluble"]
